Test system: NCI-H23 lung
test.description: NCI tumour cell line growth inhibition, 48 h
Measured GI50 by item

// solved cases for GI50 follow
compound | GI50
O=C([O][Hg][CH2]C1OCCOC1[CH2][Hg][O]C(=O)c1ccccc1)c1ccccc1 (stereo not given) | 8.21 µM
CCOC(=O)Nc1nc2ccc(Br)cc2s1 | > 50 µM
CCCCCCCCCCCCSC1=C(Cl)C(=O)C(OC)=C(OC)C1=O | 3.36 µM
COc1ccc(Cn2cc3c(c2-c2ccccc2)CCc2cnoc2-3)cc1OC | 1.46 µM

Form: Entry = COc1ccc2c(c1)oc(=O)c1cc(OC)ccc12 | System = NCI-H23 lung | GI50 = ____
> 100 µM

The measurements presented in this section are drawn from PubChem BioAssay (NCI).
